Origin of values: the supplement of paper PMC10065799

TARGET_OR_TEST_SYSTEM: Fes (UniProt P07332)
Sequence (P07332 whole entry, looked up): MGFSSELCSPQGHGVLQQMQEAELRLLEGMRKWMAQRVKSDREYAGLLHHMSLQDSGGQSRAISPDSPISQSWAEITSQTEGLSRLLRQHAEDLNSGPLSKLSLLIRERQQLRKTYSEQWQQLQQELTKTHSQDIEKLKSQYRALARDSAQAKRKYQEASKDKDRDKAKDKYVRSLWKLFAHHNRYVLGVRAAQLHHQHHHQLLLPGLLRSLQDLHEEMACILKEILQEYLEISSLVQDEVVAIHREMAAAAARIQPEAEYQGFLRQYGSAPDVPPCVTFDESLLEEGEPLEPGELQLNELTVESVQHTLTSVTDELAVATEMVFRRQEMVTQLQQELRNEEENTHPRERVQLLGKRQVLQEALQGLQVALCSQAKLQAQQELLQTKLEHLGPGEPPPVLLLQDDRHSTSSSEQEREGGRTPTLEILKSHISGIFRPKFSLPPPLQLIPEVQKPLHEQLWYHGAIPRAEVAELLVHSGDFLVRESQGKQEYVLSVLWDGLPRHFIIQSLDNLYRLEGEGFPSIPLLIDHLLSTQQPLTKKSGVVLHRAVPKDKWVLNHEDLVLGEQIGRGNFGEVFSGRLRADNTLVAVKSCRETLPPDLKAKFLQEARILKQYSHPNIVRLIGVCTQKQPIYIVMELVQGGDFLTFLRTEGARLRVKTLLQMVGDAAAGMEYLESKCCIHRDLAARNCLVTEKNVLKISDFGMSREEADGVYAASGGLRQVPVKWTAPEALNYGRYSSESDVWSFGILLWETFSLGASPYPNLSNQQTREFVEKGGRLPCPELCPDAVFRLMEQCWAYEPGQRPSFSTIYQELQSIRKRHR
ASSAY_OVERVIEW: phosphorylation enrichment, bacterial display (enrichment ratio); higher = better substrate or ligand; peptides without Tyr show the background
Lab note: compare phosphorylation enrichment against 0.7. Equal or greater, write 1.0. Smaller, write 0.0.

Illustrative cases are given below, each with its answer.
# RESIDUE_STRING, CATEGORY
records = [
    ("MSRDVYSTDFF [NTRK2_Y702_YF]", 1.0),
    ("GLSDPYVKIHL [SYT2_Y309]", 1.0),
    ("FGSLLYKFAFK [FANCD2_Y458_YF]", 1.0),
    ("PPVVNYEEDAR [FER_Y402]", 1.0),
    ("LARNMYDKEYY [MET_Y1230_D1228N]", 1.0),
]

From here, focus on the item given below.
Task: Quick check, phosphorylation enrichment >= 0.7? RAMRRYLEWGE [ERBB3_Y680_R683W]
Result: 0.0

----------
Test system: Fer (mouse)
ASSAY_OVERVIEW: phosphorylation enrichment, bacterial display (enrichment ratio); higher = better substrate or ligand; peptides without Tyr show the background
We use 0.5 as the dividing line for phosphorylation enrichment: on or above the line is YES, below is NO.

Here are 3 sequences together with their reported answers.
# RESIDUE_STRING, CATEGORY
data = [
    ("AYRHGYFDEEM [PLEC_Y2971_R2969H]", "YES"),
    ("IITDFYVDMKF [MPP4_Y567_V562I_YF]", "YES"),
    ("NQDRTYYESVR [SPEN_Y632]", "YES"),
]

Task: For this sequence, is measured phosphorylation enrichment 0.5 or higher? KLMTEYKKRKQ [ARFGEF3_Y2029]
Result: NO

Task: Given the entry AGADGYDFLAP [FOXL2_Y186_G187D_YF] , answer whether its phosphorylation enrichment meets or surpasses 0.5.
Result: YES

----------
TARGET_OR_TEST_SYSTEM: Grb2 SH2 (UniProt P62993)
Sequence (P62993 whole entry, looked up): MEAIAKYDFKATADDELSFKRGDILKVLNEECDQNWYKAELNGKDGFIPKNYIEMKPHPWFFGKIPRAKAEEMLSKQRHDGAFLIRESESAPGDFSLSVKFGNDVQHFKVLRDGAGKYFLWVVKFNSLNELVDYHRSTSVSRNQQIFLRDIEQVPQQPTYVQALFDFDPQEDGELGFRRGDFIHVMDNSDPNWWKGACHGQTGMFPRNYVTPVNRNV
ASSAY_OVERVIEW: SH2 binding enrichment of the phosphorylated peptide, bacterial display (enrichment ratio); higher = better substrate or ligand; peptides without Tyr show the background
Label false (0) if SH2 binding enrichment falls below 1; label true (1) in every other case.

# count of solved cases: 3
# RESIDUE_STRING, CATEGORY
records = [
    ("LLANAYIFDVQ [L1CAM_Y418_V421D_YF]", "true (1)"),
    ("DRLPSYLDKVR [KRT12_Y139_A137P]", "false (0)"),
    ("SVTCTYFPALN [TP53_Y126_S127F]", "false (0)"),
]

Task: Item `ENAGYYFQVSA` with SH2 binding enrichment of 1 or above?
Result: false (0)

Task: Hi team, for PPSELYFVKVD [TERT_Y707_P704S] , is the recorded SH2 binding enrichment at or above 1?
Result: false (0)

Task: Given KKKKQYKGKFL [CASK_Y708_D710G_YF] , state whether its SH2 binding enrichment is at least 1.
Result: false (0)

----------
TARGET_OR_TEST_SYSTEM: MERTK (UniProt Q12866)
Sequence (Q12866 whole entry, looked up): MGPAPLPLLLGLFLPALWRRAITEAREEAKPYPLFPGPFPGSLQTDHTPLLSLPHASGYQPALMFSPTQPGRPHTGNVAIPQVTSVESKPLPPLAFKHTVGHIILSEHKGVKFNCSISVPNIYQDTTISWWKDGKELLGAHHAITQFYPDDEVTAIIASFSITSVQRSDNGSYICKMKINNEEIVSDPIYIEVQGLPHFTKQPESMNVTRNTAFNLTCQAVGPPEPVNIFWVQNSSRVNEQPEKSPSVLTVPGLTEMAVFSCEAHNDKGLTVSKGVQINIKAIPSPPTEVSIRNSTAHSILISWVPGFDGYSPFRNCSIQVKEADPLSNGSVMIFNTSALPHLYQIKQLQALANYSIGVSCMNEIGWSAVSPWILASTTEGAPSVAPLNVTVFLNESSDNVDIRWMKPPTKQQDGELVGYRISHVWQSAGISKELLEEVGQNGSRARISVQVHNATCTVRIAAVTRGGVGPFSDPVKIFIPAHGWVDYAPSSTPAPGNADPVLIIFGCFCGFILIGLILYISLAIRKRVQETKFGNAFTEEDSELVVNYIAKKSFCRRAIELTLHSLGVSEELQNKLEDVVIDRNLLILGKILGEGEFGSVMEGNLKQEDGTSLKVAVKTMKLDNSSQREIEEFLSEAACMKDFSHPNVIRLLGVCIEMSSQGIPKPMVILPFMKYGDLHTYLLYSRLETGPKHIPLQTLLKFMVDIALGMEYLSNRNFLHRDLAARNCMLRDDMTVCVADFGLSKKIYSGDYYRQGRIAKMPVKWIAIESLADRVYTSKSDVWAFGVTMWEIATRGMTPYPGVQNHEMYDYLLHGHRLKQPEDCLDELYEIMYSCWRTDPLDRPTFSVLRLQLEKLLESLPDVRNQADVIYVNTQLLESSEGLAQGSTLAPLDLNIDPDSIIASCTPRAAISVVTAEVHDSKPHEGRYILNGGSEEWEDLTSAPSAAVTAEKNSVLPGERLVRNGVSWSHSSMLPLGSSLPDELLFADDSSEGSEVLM
ASSAY_OVERVIEW: phosphorylation enrichment, bacterial display (enrichment ratio); higher = better substrate or ligand; peptides without Tyr show the background
The threshold is inclusive: phosphorylation enrichment of exactly 0.6 counts as yes (1); values below receive no (0).

These recorded examples may help you get a feel for the data.
# RESIDUE_STRING, CATEGORY
measured = [
    ("SFPSYYTSHVQ [NEFL_Y443]", "yes (1)"),
    ("NARGLYFKLHN [GATA2_Y376_C373R_YF]", "no (0)"),
    ("RHPLDYLRQYP [NARS2_Y138_E137D]", "no (0)"),
    ("SEELHYFVQNH [UQCRC2_Y207]", "yes (1)"),
]

Task: Given PGQRVYVVAES [SHH_Y316_R321S] , state whether its phosphorylation enrichment is at least 0.6.
Result: no (0)

----------
TARGET_OR_TEST_SYSTEM: Grb2 SH2 (UniProt P62993)
ASSAY_OVERVIEW: SH2 binding enrichment of the phosphorylated peptide, bacterial display (enrichment ratio); higher = better substrate or ligand; peptides without Tyr show the background
OBSERVED_PROPERTY: SH2 binding enrichment
Give bare numbers.

# RESIDUE_STRING, SH2 binding enrichment
measured = [
    ("IDFARYWHGND [MMP11_Y162_D166N]", 0.807),
    ("IFHLSYIHNCE [PDE6B_Y227_L228I_YF]", 0.976),
    ("TSIGNYYKPWF [DHCR24_Y299_N294T]", 0.844),
    ("VVEDGYEFFAK [PPP1CB_Y254]", 0.984),
    ("SFPSYYTSHVQ [NEFL_Y443]", 1.18),
]

For each of the items listed, what is its SH2 binding enrichment?
1. EAMPDYKKQLR [SPATA18_Y229_S227P]
2. LQKPMYEVQWK [KIT_Y553]
3. HNLDYYKETTN [FGFR3_Y648_K650E]
4. FFCKFYNKSED [RYR1_Y4864_R4861C]
5. FSPPYYHRNCM [HGD_Y334_R330S]
6. MRNDLYQTPLH [NFKB1_Y582]
7. MFVKSYTIHFS [F5_Y2153_YF]

Result:
1. 0.835
2. 0.771
3. 1.24
4. 0.433
5. 0.876
6. 0.697
7. 0.742

List SH2 binding enrichment for every entry below, keeping the order given.
1. SLIDMYSKVLD [OPA1_Y268_E270K]
2. YVKEPYIQSRF [HIPK4_Y175]
3. RFLRGYHQDAY [HLA-A_Y137_R138H]
4. SVVVPNEPPEV [TP53_Y220_Y220N]
5. YSIDYYRVGGH [NTRK2_Y707_T704I]
6. RLRAAYNLVKR [PFKM_Y103]
7. YSTDYYRVGGH [NTRK2_Y707]

Result:
0.777
1.11
0.857
0.825
0.832
0.721
0.787

Look at each sequence and report its SH2 binding enrichment.
1. IRQGHYESLKE [MTR_Y921_D919G]
2. SFPREYGSQEG [RBM10_Y48_YF]
3. MTKEQYIKMNR [ARFGEF2_Y797]
4. HTLQLYRCREE [ALPK3_Y342]
5. ISSLPYMKMIF [SLC4A11_Y853_M848I]
6. FLTQHYDAEPQ [ANG_Y38_K41E]
7. CTTIHYNFMGN [TP53_Y234_C238G_YF]
8. ADGLEYSRTEL [MMUT_Y287_G291E]

Result:
0.951
0.9
0.823
0.672
1.19
0.992
0.96
0.717

Record SH2 binding enrichment per entry; entries follow.
1. SEVVPYEPPEV [TP53_Y220_V216E]
2. IRQDDYESLKE [MTR_Y921_H920D]

Result:
0.902
0.907

----------
Tested on: c-Abl (mouse)
ASSAY_OVERVIEW: phosphorylation enrichment, bacterial display (enrichment ratio); higher = better substrate or ligand; peptides without Tyr show the background
OBSERVED_PROPERTY: phosphorylation enrichment

Illustrative cases are given below, each with its answer.
# RESIDUE_STRING, phosphorylation enrichment
rows = [
    ("HRGFLYLAIEF [TEK_Y899_Y897F_YF]", 1.52),
    ("LVMFIYAISGM [SCN1A_Y1684_F1687S]", 1.17),
]

// batch mode: one phosphorylation enrichment value per listed entry
1. EFKDAYTFAAD [BRDT_Y335_K336T_YF]
2. FSEVRYMKEPY [HIPK4_Y170_V171M]
3. PGGNIYISPLK [RB1_Y805]
4. FTFNSYFMHWV [IGHV1-46_Y51_T49N_YF]
5. PESCFYKESWL [IQGAP2_Y630_L629F]
6. SRGHQYQELPR [KCNH2_Y1009_R1007H]
7. KGRAGYTTVAV [RET_Y752]
8. AVDMTYDGHPV [FLNB_Y1020_V1018M]

Result:
1. 0.647
2. 0.695
3. 1.75
4. 0.962
5. 0.766
6. 0.589
7. 0.454
8. 0.768

----------
TARGET_OR_TEST_SYSTEM: Jak2 (UniProt O60674)
Sequence (O60674 whole entry, looked up): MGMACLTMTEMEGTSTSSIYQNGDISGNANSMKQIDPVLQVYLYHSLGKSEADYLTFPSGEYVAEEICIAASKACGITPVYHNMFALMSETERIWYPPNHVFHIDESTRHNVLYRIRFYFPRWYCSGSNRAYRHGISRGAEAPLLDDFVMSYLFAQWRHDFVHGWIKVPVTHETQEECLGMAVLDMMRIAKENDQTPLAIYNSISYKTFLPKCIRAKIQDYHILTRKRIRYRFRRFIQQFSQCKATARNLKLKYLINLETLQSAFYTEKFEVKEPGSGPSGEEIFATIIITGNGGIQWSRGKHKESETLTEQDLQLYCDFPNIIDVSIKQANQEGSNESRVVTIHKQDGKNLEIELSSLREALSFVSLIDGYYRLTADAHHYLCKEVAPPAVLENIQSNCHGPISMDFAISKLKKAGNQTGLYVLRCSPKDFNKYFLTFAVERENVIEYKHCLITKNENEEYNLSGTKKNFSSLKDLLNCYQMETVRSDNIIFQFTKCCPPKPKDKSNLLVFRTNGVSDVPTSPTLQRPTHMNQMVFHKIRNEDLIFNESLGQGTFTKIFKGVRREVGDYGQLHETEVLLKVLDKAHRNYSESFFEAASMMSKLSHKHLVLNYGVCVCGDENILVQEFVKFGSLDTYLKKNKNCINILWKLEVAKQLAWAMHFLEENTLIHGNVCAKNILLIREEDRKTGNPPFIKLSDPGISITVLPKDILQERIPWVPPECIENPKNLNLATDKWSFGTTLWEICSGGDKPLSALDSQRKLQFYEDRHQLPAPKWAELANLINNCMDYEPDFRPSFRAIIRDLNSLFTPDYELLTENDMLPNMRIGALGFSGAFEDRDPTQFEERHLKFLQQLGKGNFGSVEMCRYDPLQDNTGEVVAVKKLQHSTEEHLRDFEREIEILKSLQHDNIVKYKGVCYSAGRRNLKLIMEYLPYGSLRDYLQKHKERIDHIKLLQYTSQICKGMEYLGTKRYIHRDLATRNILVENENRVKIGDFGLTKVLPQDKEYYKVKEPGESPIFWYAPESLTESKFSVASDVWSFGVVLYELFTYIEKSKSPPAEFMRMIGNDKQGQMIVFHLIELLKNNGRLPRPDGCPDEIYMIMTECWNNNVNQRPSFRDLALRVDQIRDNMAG
ASSAY_OVERVIEW: phosphorylation enrichment, bacterial display (enrichment ratio); higher = better substrate or ligand; peptides without Tyr show the background
OBSERVED_PROPERTY: phosphorylation enrichment
One number for each entry.

# RESIDUE_STRING, TARGET_OR_TEST_SYSTEM, OBSERVED_PROPERTY, OBSERVED
data = [
    ("SGVVPYEPPEV [TP53_Y220_V216G]", "Jak2 (UniProt O60674)", "phosphorylation enrichment", 0.986),
]

Could you report phosphorylation enrichment for every entry in the following list?
1. LFSGDCFRIQG [DDR2_Y740_Y740C_YF]
2. STDDGCIDLQF [TMEM230_Y29_Y29C]
3. TTASRYLKVSD [MYOM2_Y871_N869S]

Result:
[0.764, 0.979, 0.434]

State the recorded phosphorylation enrichment for every item in the following list.
1. GVYSRHFTTYD [CLCA1_Y661_Y661H]
2. DAGTDYVGISR [FREM2_Y2061]

Result:
[0.507, 0.496]
